# MEASURED_ON: COVID-19 S.P. RBD (Cat. #40592-V08B, SB) (SARS-CoV-2, UniProt P0DTC2 319-541)
RECORDED_ENDPOINT: pKd
Answers are plain numbers, as −log10 of the molar value.

I am curious: what pKd value has been reported for Fc tagged nanobody VHH82 (Fc fusion) EVQLVESGGGLVQPGGSLRLSCAASGFIYSFNIMGWFRQAPGKGRELVASISSYDDITYYPDSVEGRFTISRDNAKRMVYLQMNSLRAEDTAVYYCAAYLLRGDDRYYATYSYWGQGTQVTVSSGSGGGGSGGGGS ?
8.64
